From: PubChem BioAssay (NCI)

# System: HT29 colon
# Test method notes: NCI-60 one-dose screen, 48 h
# Reported conditions: 10 µM unless noted
This is part of a sample that, as a whole, favours compounds with a hit. Of some 83,000 tested, about 20% had one in any assay. Activity calls are given as the source filed them. How the source made its calls: active means growth percent below 10; inactive means the rest.
Log the outcome using a class from label 1 for active, label 0 for inactive

Q) Per the records of this test, what outcome belongs to Cc1cccc(C)c1Nc1nnc(-c2c[nH]c3ccccc23)o1 ?
A) label 0

Q) Record lookup: outcome of this test for COc1ccccc1NC(=O)c1ccc(NC(=O)CCl)s1 ?
A) label 1

Q) Would you mind telling me which call this test gave COc1nc(N)ncc1-c1ccc2ncnc(N3CCc4cc(F)c(Cl)cc43)c2c1 ?
A) label 0

Q) Recorded test call requested for c1n[nH]cc1-c1nc2ccc3cn[nH]c3c2c2c1CCCC2
A) label 0

Q) Per the assay record, what outcome was assigned to COc1cc(C2CC(c3ccc(S(=O)(=O)NCCNc4nc(N(C)C)nc(N5CCOCC5)n4)cc3)=Nc3c(N)nc(N)nc3N2)cc(OC)c1OC (stereo not given) ?
A) label 0
